Target or system D(3) dopamine receptor (Homo sapiens, UniProt P35462): recorded log10 of Ki listed per item.
Would you kindly interpret these values as log10 of Ki expressed in µM?

The following compounds have reported results that may help.
O[C@@]1(c2cccc(Cl)c2Cl)C[C@H]2CC[C@@H](C1)N2Cc1coc2ccccc12: -1.49
O[C@]1(c2ccc(Cl)cc2)C[C@H]2CC[C@@H](C1)N2Cc1c[nH]c2ccccc12: -1.81
O[C@@]1(c2cccc(Cl)c2Cl)C[C@H]2CC[C@@H](C1)N2Cc1csc2ccccc12: -0.37
O[C@@]1(c2ccc(Br)cc2)C[C@H]2CC[C@@H](C1)N2Cc1coc2ccccc12: -3.04
O[C@@]1(c2cccc(Cl)c2Cl)C[C@H]2CC[C@@H](C1)N2Cc1c[nH]c2ccccc12: -0.32
O[C@@]1(c2ccc(F)cc2)C[C@H]2CC[C@@H](C1)N2Cc1c[nH]c2ccccc12: -1.51

Ask | State the recorded log10 of Ki for this entry: O[C@@]1(c2ccc(Cl)cc2)C[C@H]2CC[C@@H](C1)N2Cc1n[nH]c2ccccc12
Reply | -1.07

Ask | How about this compound: O[C@@]1(c2ccc(Cl)c(Cl)c2)C[C@H]2CC[C@@H](C1)N2Cc1coc2ccc(F)cc12
Reply | -3.28

###

Biological target: D(3) dopamine receptor (Homo sapiens)
Sequence (P35462 whole entry): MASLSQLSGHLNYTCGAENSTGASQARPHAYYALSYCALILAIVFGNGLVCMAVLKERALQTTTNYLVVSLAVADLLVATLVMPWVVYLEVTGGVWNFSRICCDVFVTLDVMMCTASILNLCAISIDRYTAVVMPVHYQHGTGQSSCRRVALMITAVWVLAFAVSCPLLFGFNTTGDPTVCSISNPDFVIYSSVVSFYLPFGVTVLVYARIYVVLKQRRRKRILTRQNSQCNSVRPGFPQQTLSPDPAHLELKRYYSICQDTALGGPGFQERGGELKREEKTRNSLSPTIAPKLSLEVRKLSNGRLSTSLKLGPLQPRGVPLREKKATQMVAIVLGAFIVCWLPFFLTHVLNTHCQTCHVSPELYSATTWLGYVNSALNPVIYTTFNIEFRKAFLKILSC
Test: Displacement of [125I]IABN from human dopamine D3 receptor expressed in HEK293 cells
Format: cell-based
Each entry below carries its reported Ki.
Please state the value followed by its unit.

# example entries with known answers
O[C@@]1(c2ccc(Cl)cc2)C[C@H]2CC[C@@H](C1)N2Cc1coc2c1ccc1ccccc12: 2 nM
O[C@]1(c2ccc(Cl)c(Cl)c2)C[C@H]2CC[C@@H](C1)N2Cc1coc2ccccc12: 0.34 nM
O[C@@]1(c2ccc(Cl)cc2)C[C@H]2CC[C@@H](C1)N2Cc1coc2ccccc12: 0.71 nM
COc1ccc2[nH]cc(CN3[C@@H]4CC[C@H]3C[C@](O)(c3ccc(Cl)cc3)C4)c2c1: 21.2 nM

In the following, a different molecule is considered.
Ask | I am curious: what Ki value has been reported for CSc1ccc([C@]2(O)C[C@H]3CC[C@@H](C2)N3Cc2c[nH]c3ccccc23)cc1 ?
Reply | 541 nM

###

Biological target: D(3) dopamine receptor (Homo sapiens)
Test: Antagonist activity at dopamine D3 receptor
pIC50: −log10 of the molar value.
Label rule, in plain words: pIC50 of 8 and up is MET, under 8 is NOT MET.

O[C@@]1(c2ccc(Cl)cc2)C[C@H]2CC[C@@H](C1)N2Cc1csc2ccccc12: MET
OC1(c2ccc(Cl)cc2)CCN(Cc2c[nH]c3ccccc23)CC1: NOT MET

Ask | Record O[C@@]1(c2ccc(Cl)cc2)C[C@H]2CC[C@@H](C1)N2Cc1coc2ccccc12 ; criterion: pIC50 no lower than 8. Met?
Reply | MET

###

Target: 5-hydroxytryptamine receptor 2C (Homo sapiens)
Sequence (P28335 whole entry): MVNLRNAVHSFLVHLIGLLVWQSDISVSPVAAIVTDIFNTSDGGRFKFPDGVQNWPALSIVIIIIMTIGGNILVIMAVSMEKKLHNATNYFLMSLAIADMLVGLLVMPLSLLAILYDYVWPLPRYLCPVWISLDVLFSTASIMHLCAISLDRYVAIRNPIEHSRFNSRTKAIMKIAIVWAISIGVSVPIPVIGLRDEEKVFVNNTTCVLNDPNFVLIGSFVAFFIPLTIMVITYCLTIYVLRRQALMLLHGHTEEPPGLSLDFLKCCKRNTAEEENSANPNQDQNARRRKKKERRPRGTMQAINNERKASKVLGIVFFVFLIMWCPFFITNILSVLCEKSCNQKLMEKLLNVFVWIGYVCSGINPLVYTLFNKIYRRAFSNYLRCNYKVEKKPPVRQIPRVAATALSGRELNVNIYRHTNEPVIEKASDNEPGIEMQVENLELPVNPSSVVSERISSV
Assay: Displacement of [3H]mesulergine from 5HT2C receptor
Below, each entry is listed alongside its reported Ki.

Known Ki results, listed for orientation:
O[C@]1(c2ccc(Cl)cc2)C[C@H]2CC[C@@H](C1)N2Cc1c[nH]c2ccccc12: > 10 µM
O[C@@]1(c2ccc(Cl)cc2)C[C@H]2CC[C@@H](C1)N2Cc1csc2ccccc12: > 10 µM

Ask | GET /values?readout=Ki&item= O[C@@]1(c2ccc(Cl)cc2)C[C@H]2CC[C@@H](C1)N2Cc1coc2ccccc12
Reply | > 10 µM
